- Tested on: A498 renal
- experiment description: NCI tumour cell line growth inhibition, 48 h; in the data active means GI50 below about 0.43 µM; inactive means the rest
A correct response names exactly one class from YES = active, NO = inactive

Below are worked cases with known answers.
compound	assigned label
COc1cc2c3c(n(CCCn4cccn4)c(=O)c2cc1OC)-c1cc2c(cc1C3=O)OCO2	NO
COc1ccc(OC)c(-c2cn3nc(-c4c[nH]c5ccc(Br)cc45)sc3n2)c1	NO
COc1cccc(NC(=O)c2ccc(C(F)(F)F)nc2Nc2ccc(Cl)cc2C)c1	NO
CC(=O)OC1CC(C)c2c1ncnc2N1CCN(C(=O)OC(C)(C)C)CC1 (stereo unspecified)	NO
Cc1cc(C)c(S(=O)(=O)Oc2ccccc2[N+](=O)[O-])c(C)c1	NO

Name the outcome recorded for "COc1cc2c(cc1OCCN1C(=O)c3cccc4cccc(c34)C1=O)N=C[C@@H]1CCCN1C2=O" in the assay.
NO

Name the outcome recorded for "CCOc1ccc2c(-c3ccnc(Nc4cccc(C(F)(F)F)c4)n3)cnn2n1" in the assay.
NO

Name the outcome recorded for "CCCN(CCC)c1ccc(C=O)c(OC)c1" in the assay.
NO

Name the outcome recorded for "CCCCCn1ncc(-c2c(O)c(O)cc3c(O)c(-c4c(C)cc5c(-c6cnn(CCCCC)n6)c(O)c(O)cc5c4O)c(C)cc23)n1" in the assay.
NO

Name the outcome recorded for "CCOc1ccccc1N=C(NC(=O)CC)SC" in the assay.
NO

Name the outcome recorded for "COc1ccccc1NC(=O)N/C(N)=N/c1nc2ccccc2s1" in the assay.
YES
